Sourced from ChEMBL document CHEMBL1136905

# Assay Target: Bile acid receptor (Homo sapiens) (UniProt Q96RI1)
# Sequence (Q96RI1 whole entry, the tested form may be a part): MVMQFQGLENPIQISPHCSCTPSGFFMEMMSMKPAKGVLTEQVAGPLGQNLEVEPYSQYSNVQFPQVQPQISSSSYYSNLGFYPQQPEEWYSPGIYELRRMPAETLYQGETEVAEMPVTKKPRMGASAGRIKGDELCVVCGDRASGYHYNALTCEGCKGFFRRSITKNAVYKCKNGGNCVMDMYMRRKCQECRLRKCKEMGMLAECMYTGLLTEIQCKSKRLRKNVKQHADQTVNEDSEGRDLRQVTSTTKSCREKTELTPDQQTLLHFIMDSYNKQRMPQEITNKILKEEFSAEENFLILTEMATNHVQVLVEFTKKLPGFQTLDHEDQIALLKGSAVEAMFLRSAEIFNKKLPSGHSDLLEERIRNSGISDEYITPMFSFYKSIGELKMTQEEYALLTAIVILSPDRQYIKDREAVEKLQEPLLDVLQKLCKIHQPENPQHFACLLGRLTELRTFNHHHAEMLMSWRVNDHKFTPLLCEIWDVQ
# Assay Details: Agonist activity at human FXR assessed as SRC1 peptide interaction with receptor ligand binding domain by FRET assay relative to GW-4064
%max values by entry
Recorded Endpoint: %max (%)

smiles_notation=CC(C)c1onc(CNc2c(Cl)cncc2Cl)c1COc1ccc(/C=C/c2cccc(C(=O)O)c2)c(Cl)c1 recorded_endpoint=%max measured_number=68
smiles_notation=CC(C)c1onc(COc2cc(Cl)cc(Cl)c2)c1COc1ccc(/C=C/c2cccc(C(=O)O)c2)c(Cl)c1 recorded_endpoint=%max measured_number=40
smiles_notation=Cc1cccc(C)c1OCc1noc(C(C)C)c1COc1ccc(/C=C/c2cccc(C(=O)O)c2)c(Cl)c1 recorded_endpoint=%max measured_number=110
smiles_notation=CC(C)c1onc(-c2c(Cl)cncc2Cl)c1COc1ccc(/C=C/c2cccc(C(=O)O)c2)c(Cl)c1 recorded_endpoint=%max measured_number=97
